- procedure_text: antimalarial activity against Dd2 strain (AID 2302)
- settings: P. falciparum Dd2 in RBCs, LDH growth readout, 72 h; at 2 µM; hits give high values
Lab note: compare growth inhibition against 50%. Equal or greater, write Yes. Smaller, write No.

Has `CCCCCCN1CCCN(Cc2ccc(C(=O)Nc3ccc(CCC)cc3)cc2)CC1` a recorded growth inhibition greater than or equal to 50%?
Yes

Another compound: `COc1ccc2nccc([C@@H](O)CN3CCC(NCc4cc5c(Cl)cccc5[nH]4)CC3)c2c1`
Yes

Another compound: `Oc1ccc(CN2Cc3ccccc3OC3(CCN(Cc4c[nH]c5cnccc45)CC3)C2)cc1`
No

Another compound: CN(Cc1cccc(O)c1)C1CCN(c2cc(NC(=O)c3ccc(F)cc3)ccn2)C1 (centres undefined)
No

Another compound: N#Cc1cc([N+](=O)[O-])ccc1-n1nc(-c2cccc(Cl)c2)n(CC2CCCO2)c1=S (centres undefined)
Yes

Another compound: `COc1ccc(CC(=O)Nc2ccc(Nc3nc(C)cc(N(C)C)n3)cc2)cc1`
No

Another compound: `CC(C)CN(C)Cc1ccc(-c2ccc(-c3nc4ccccc4[nH]3)s2)cc1`
Yes

Another compound: `O=C(Nc1cccc(-c2cccc(-c3nc4ccccc4[nH]3)c2)c1)Nc1ccc(F)c(F)c1F`
Yes
